System: SK-MEL-2 melanoma
run.description: NCI tumour cell line growth inhibition, 48 h
Each entry below carries its recorded TGI.

{"smiles.notation": "Fc1ccc(-c2nc(-c3nc4ccc(Cl)cc4[nH]3)cc3c2[nH]c2ccccc23)cc1", "TGI": "7.54 µM"}
{"smiles.notation": "C/C(=N\\NC(=O)CC(=O)Nc1ccc(C)cc1)c1cc2ccccc2oc1=O", "TGI": "> 100 µM"}
{"smiles.notation": "CSc1ccc2c(c1)c(CCN)c(C)n2Cc1ccc(Cl)c(Cl)c1", "TGI": "3.34 µM"}
{"smiles.notation": "O=C1Cc2cc(CCn3ccnc3)c(Cl)cc2N1", "TGI": "73.6 µM"}
{"smiles.notation": "OC(c1cc(C(O)(C(F)(F)F)C(F)(F)F)ncn1)(C(F)(F)F)C(F)(F)F", "TGI": "> 10 µM"}
